- Tested on: 317291-083-R-J1-PDC complex spheroids, viability;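 further: spheroids exposed to compounds for one week before readout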
- procedure_text: Anticancer human tumor 317291-083-R-J1-PDC patient-derived soft tissue sarcoma cell line growth inhibition [GQUAD]; active means viability on the fitted dose curve at most 10% of control; inactive means the rest
- settings: second compound 1 µM; first compound 1 µM
Labels: active, inactive

[
  {
    "compound": "CC1COCCN1c1cc(-c2ccnn2C)c2ccnc(-c3ccn[nH]3)c2n1 (stereo unspecified) + CN(C)c1ccc(Nc2c3ccc(NC(=O)CCN4CCCC4)cc3nc3cc(NC(=O)CCN4CCCC4)ccc23)cc1",
    "target_of_assay": "317291-083-R-J1-PDC complex spheroids, viability",
    "assigned_label": "inactive"
  },
  {
    "compound": "CCCS(=O)(=O)Nc1ccc(F)c(C(=O)c2c[nH]c3ncc(-c4ccc(Cl)cc4)cc23)c1F + Cc1cnc(CNC(=O)c2c(=O)c3ccc(N4CCCN(C)CC4)nc3n3c2sc2ccccc23)cn1",
    "target_of_assay": "317291-083-R-J1-PDC complex spheroids, viability",
    "assigned_label": "inactive"
  },
  {
    "compound": "O=C(NO)c1cnc(N2CCN(S(=O)(=O)c3ccc4ccccc4c3)CC2)nc1 + Cc1cnc(CNC(=O)c2c(=O)c3ccc(N4CCCN(C)CC4)nc3n3c2sc2ccccc23)cn1",
    "target_of_assay": "317291-083-R-J1-PDC complex spheroids, viability",
    "assigned_label": "active"
  },
  {
    "compound": "Cc1cccc(N(C)C(=O)C2C(O)CCN2c2nc(C)cc(C(F)(F)F)c2C#N)c1 (stereo unspecified) + Cc1[nH]c2ccc(F)cc2c1-c1nc2c3cccnc3c3ncccc3c2[nH]1",
    "target_of_assay": "317291-083-R-J1-PDC complex spheroids, viability",
    "assigned_label": "inactive"
  },
  {
    "compound": "CC1COCCN1c1cc(C2(O)CC3CCC(C2)O3)c2cnn(-c3ccn[nH]3)c2n1 (stereo unspecified) + Cc1cnc(CNC(=O)c2c(=O)c3ccc(N4CCCN(C)CC4)nc3n3c2sc2ccccc23)cn1",
    "target_of_assay": "317291-083-R-J1-PDC complex spheroids, viability",
    "assigned_label": "inactive"
  },
  {
    "compound": "Cc1cccc(N(C)C(=O)C2C(O)CCN2c2nc(C)cc(C(F)(F)F)c2C#N)c1 (stereo unspecified) + Cc1cnc(CNC(=O)c2c(=O)c3ccc(N4CCCN(C)CC4)nc3n3c2sc2ccccc23)cn1",
    "target_of_assay": "317291-083-R-J1-PDC complex spheroids, viability",
    "assigned_label": "inactive"
  },
  {
    "compound": "C#Cc1c(F)ccc2cc(O)cc(-c3ncc4c(N5CC6CCC(C5)N6)nc(OCC56CCCN5CC(F)C6)nc4c3F)c12 (stereo unspecified) + Cc1[nH]c2ccc(F)cc2c1-c1nc2c3cccnc3c3ncccc3c2[nH]1",
    "target_of_assay": "317291-083-R-J1-PDC complex spheroids, viability",
    "assigned_label": "inactive"
  },
  {
    "compound": "C=CCn1c(=O)c2cnc(Nc3ccc(N4CCN(C)CC4)cc3)nc2n1-c1cccc(C(C)(C)O)n1 + CN(C)c1ccc(Nc2c3ccc(NC(=O)CCN4CCCC4)cc3nc3cc(NC(=O)CCN4CCCC4)ccc23)cc1",
    "target_of_assay": "317291-083-R-J1-PDC complex spheroids, viability",
    "assigned_label": "active"
  },
  {
    "compound": "COc1cccc2c1C(=O)c1c(O)c3c(c(O)c1C2=O)CC(O)(C(=O)CO)CC3OC1CC(N)C(O)C(C)O1 (stereo unspecified) + Cc1cnc(CNC(=O)c2c(=O)c3ccc(N4CCCN(C)CC4)nc3n3c2sc2ccccc23)cn1",
    "target_of_assay": "317291-083-R-J1-PDC complex spheroids, viability",
    "assigned_label": "active"
  },
  {
    "compound": "O=c1[nH]cc(F)c(=O)[nH]1 + Cc1[nH]c2ccc(F)cc2c1-c1nc2c3cccnc3c3ncccc3c2[nH]1",
    "target_of_assay": "317291-083-R-J1-PDC complex spheroids, viability",
    "assigned_label": "inactive"
  },
  {
    "compound": "CC(=O)O[C@H]1C(=O)[C@@]2(C)[C@H]([C@H](OC(=O)c3ccccc3)[C@]3(O)C[C@H](OC(=O)[C@H](O)[C@@H](NC(=O)c4ccccc4)c4ccccc4)C(C)=C1C3(C)C)[C@]1(OC(C)=O)CO[C@@H]1C[C@@H]2O + Cc1[nH]c2ccc(F)cc2c1-c1nc2c3cccnc3c3ncccc3c2[nH]1",
    "target_of_assay": "317291-083-R-J1-PDC complex spheroids, viability",
    "assigned_label": "inactive"
  },
  {
    "compound": "COc1cccc2c1C(=O)c1c(O)c3c(c(O)c1C2=O)CC(O)(C(=O)CO)CC3OC1CC(N)C(O)C(C)O1 (stereo unspecified) + Cc1[nH]c2ccc(F)cc2c1-c1nc2c3cccnc3c3ncccc3c2[nH]1",
    "target_of_assay": "317291-083-R-J1-PDC complex spheroids, viability",
    "assigned_label": "active"
  },
  {
    "compound": "COc1ncnc(C2CC2)c1-c1ncc2cnn(Cc3ccc(-c4nc(C(F)(F)F)cn4C(C)C)cc3)c2n1 + Cc1[nH]c2ccc(F)cc2c1-c1nc2c3cccnc3c3ncccc3c2[nH]1",
    "target_of_assay": "317291-083-R-J1-PDC complex spheroids, viability",
    "assigned_label": "inactive"
  },
  {
    "compound": "O=C(c1cc(Cc2n[nH]c(=O)c3ccccc23)ccc1F)N1CCN(C(=O)C2CC2)CC1 + Cc1cnc(CNC(=O)c2c(=O)c3ccc(N4CCCN(C)CC4)nc3n3c2sc2ccccc23)cn1",
    "target_of_assay": "317291-083-R-J1-PDC complex spheroids, viability",
    "assigned_label": "inactive"
  },
  {
    "compound": "C#Cc1c(F)ccc2cc(O)cc(-c3ncc4c(N5CC6CCC(C5)N6)nc(OCC56CCCN5CC(F)C6)nc4c3F)c12 (stereo unspecified) + Cc1cnc(CNC(=O)c2c(=O)c3ccc(N4CCCN(C)CC4)nc3n3c2sc2ccccc23)cn1",
    "target_of_assay": "317291-083-R-J1-PDC complex spheroids, viability",
    "assigned_label": "inactive"
  },
  {
    "compound": "COc1ccc([C@@H](O)c2cc(-c3ncnc4cc(N5CCOCC5)ccc34)c(F)cc2Cl)nn1 + Cc1cnc(CNC(=O)c2c(=O)c3ccc(N4CCCN(C)CC4)nc3n3c2sc2ccccc23)cn1",
    "target_of_assay": "317291-083-R-J1-PDC complex spheroids, viability",
    "assigned_label": "inactive"
  },
  {
    "compound": "COc1ncnc(C2CC2)c1-c1ncc2cnn(Cc3ccc(-c4nc(C(F)(F)F)cn4C(C)C)cc3)c2n1 + CN(C)c1ccc(Nc2c3ccc(NC(=O)CCN4CCCC4)cc3nc3cc(NC(=O)CCN4CCCC4)ccc23)cc1",
    "target_of_assay": "317291-083-R-J1-PDC complex spheroids, viability",
    "assigned_label": "inactive"
  },
  {
    "compound": "Cc1cccc(N(C)C(=O)C2C(O)CCN2c2nc(C)cc(C(F)(F)F)c2C#N)c1 (stereo unspecified) + CN(C)c1ccc(Nc2c3ccc(NC(=O)CCN4CCCC4)cc3nc3cc(NC(=O)CCN4CCCC4)ccc23)cc1",
    "target_of_assay": "317291-083-R-J1-PDC complex spheroids, viability",
    "assigned_label": "inactive"
  },
  {
    "compound": "CC(C)(O)C1CCC(Nc2ccc3ncc(-c4cccc(C(F)(F)F)c4)n3n2)CC1 (stereo unspecified) + Cc1[nH]c2ccc(F)cc2c1-c1nc2c3cccnc3c3ncccc3c2[nH]1",
    "target_of_assay": "317291-083-R-J1-PDC complex spheroids, viability",
    "assigned_label": "active"
  },
  {
    "compound": "C=CC(=O)N1CCN(c2nc(=O)n(-c3c(C)ccnc3C(C)C)c3nc(-c4c(O)cccc4F)c(F)cc23)C(C)C1 (stereo unspecified) + Cc1[nH]c2ccc(F)cc2c1-c1nc2c3cccnc3c3ncccc3c2[nH]1",
    "target_of_assay": "317291-083-R-J1-PDC complex spheroids, viability",
    "assigned_label": "inactive"
  },
  {
    "compound": "CC(C)(O)C1CCC(Nc2ccc3ncc(-c4cccc(C(F)(F)F)c4)n3n2)CC1 (stereo unspecified) + Cc1cnc(CNC(=O)c2c(=O)c3ccc(N4CCCN(C)CC4)nc3n3c2sc2ccccc23)cn1",
    "target_of_assay": "317291-083-R-J1-PDC complex spheroids, viability",
    "assigned_label": "inactive"
  }
]
